# IC50 values compiled below
Target: human calcium receptor (Homo sapiens)
Sequence (P41180 20-1078): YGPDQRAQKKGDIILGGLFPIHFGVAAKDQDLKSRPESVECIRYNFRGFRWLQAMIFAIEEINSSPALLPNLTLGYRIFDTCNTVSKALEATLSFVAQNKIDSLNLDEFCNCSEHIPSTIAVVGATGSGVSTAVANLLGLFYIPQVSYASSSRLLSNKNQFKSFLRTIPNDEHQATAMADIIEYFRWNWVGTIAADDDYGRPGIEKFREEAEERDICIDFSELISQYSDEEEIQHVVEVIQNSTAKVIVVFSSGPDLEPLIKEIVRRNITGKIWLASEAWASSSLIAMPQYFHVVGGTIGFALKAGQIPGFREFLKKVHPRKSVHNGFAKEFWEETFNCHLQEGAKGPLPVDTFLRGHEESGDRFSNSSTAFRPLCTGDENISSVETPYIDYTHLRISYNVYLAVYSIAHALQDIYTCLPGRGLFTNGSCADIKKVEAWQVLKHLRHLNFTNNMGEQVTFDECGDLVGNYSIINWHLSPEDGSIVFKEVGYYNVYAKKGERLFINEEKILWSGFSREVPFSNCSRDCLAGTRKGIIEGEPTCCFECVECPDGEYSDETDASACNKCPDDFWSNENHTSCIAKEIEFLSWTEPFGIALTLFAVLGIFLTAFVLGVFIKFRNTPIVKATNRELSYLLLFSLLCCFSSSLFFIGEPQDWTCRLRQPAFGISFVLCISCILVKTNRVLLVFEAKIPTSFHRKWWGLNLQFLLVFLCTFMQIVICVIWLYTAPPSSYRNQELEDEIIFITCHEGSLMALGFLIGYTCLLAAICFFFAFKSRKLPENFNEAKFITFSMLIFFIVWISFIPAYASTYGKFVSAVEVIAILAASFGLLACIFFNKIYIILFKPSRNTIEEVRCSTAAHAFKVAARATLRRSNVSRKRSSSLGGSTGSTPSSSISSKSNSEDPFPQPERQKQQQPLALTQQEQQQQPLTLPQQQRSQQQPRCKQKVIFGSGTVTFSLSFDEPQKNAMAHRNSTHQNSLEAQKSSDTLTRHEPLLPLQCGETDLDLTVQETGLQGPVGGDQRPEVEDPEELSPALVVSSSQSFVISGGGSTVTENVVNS
Test: Calcium Receptor Inhibitor Assay (block of intracellular Ca2+ increase elicited by extracellular Ca2+, fluo-3)
Conditions: HEK 293 4.0-7 cells stably expressing the human calcium receptor; 10 uM was the limit of the assay; read-out: IC50 for blocking increases of intracellular Ca2+ elicited by extracellular Ca2+

For orientation, consider the following solved cases.
CC(C)(Cc1ccc(C(C)(C)C)cc1)NC[C@@H](O)c1cc(CCC(=O)O)cc(F)c1F [Example 20] ... > 10 µM
Cc1ccc(CC(C)(C)NC[C@@H](O)c2cc(CCC(=O)O)cc(F)c2F)s1 [Example 16] ... > 10 µM
CSc1ccc(CC(C)(C)NC[C@@H](O)c2cc(CCC(=O)O)cc(F)c2F)cc1 [Example 19] ... > 10 µM

*Q* Hi! What's the reported IC50 for CC(C)(Cc1cccs1)NC[C@@H](O)c1cc(CCC(=O)O)cc(F)c1F [Example 21] on human calcium receptor (Homo sapiens)?
*A* > 10 µM

====

Target: human calcium receptor (Homo sapiens)
Sequence (P41180 20-1078): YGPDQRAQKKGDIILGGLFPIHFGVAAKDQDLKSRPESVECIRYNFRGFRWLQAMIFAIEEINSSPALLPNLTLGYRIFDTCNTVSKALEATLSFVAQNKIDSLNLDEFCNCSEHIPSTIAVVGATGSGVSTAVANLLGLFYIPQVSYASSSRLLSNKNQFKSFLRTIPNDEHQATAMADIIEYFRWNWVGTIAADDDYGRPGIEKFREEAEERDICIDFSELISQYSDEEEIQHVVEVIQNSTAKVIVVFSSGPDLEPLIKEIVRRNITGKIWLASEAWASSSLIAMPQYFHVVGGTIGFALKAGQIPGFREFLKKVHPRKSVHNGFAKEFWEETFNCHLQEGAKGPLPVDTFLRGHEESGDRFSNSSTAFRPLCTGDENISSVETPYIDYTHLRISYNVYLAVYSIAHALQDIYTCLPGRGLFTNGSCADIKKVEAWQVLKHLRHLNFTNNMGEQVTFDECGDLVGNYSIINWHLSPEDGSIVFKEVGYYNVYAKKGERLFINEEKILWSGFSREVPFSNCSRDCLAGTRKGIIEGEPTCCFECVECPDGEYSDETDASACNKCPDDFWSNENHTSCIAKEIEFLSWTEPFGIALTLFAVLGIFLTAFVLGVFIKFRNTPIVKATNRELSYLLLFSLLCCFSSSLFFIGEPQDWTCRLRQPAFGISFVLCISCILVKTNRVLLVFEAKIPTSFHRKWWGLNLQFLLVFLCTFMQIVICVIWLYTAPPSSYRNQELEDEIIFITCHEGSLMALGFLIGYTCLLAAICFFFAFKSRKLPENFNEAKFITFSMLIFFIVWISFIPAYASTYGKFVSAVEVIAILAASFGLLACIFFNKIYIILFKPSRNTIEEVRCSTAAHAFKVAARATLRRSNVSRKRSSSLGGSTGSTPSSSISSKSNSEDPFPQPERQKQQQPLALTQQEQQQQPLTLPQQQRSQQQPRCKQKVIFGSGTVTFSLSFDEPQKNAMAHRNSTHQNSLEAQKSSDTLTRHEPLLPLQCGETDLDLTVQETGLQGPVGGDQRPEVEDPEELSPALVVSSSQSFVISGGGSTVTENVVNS
Assay: Calcium Receptor Inhibitor Assay (block of intracellular Ca2+ increase elicited by extracellular Ca2+, fluo-3)
Settings: HEK 293 4.0-7 cells stably expressing the human calcium receptor; 10 uM was the limit of the assay; read-out: IC50 for blocking increases of intracellular Ca2+ elicited by extracellular Ca2+
pIC50: −log10 of the molar value.
quantity_kind: pIC50

For orientation, consider the following solved cases.
COc1ccc(CCC(C)(C)NC[C@@H](O)c2cc(CCC(=O)O)cc(F)c2F)cc1 ... < 5.00
CC(C)(CCc1ccccc1)NC[C@@H](O)c1cc(CCC(=O)O)cc(F)c1F ... < 5.00
CC(C)(Cc1ccc(Cl)s1)NC[C@@H](O)c1cc(CCC(=O)O)cc(F)c1F ... < 5.00

*Q* Data request, read-out pIC50, for CC(C)(Cc1ccc(Br)cc1)NC[C@@H](O)c1cc(CCC(=O)O)cc(F)c1F
*A* < 5.00

*Q* Entry Cc1ccc(CC(C)(C)NC[C@@H](O)c2cc(CCC(=O)O)cc(F)c2F)cc1F please
*A* < 5.00

====

biological target: Human Parathyroid Calcium Receptor (“HuPCaR”) (Homo sapiens); assay: Calcium Receptor Binding Assay (3H ligand displacement, HEK 293 4.0-7 membranes); details: 2 nM 3H compound, 4° C. 30 min, 10 uM was the limit of the assay
# IC50 values compiled below

CC(C)(Cc1ccccc1)NC[C@@H](O)c1cc(CCC(=O)O)cc(F)c1F ... > 10 µM
CC(C)(Cc1cccs1)NC[C@@H](O)c1cc(CCC(=O)O)cc(F)c1F ... > 10 µM

*Q* Data request, read-out IC50, for COc1ccc(CCC(C)(C)NC[C@@H](O)c2cc(CCC(=O)O)cc(F)c2F)cc1
*A* > 10 µM
